Readings of melting point for the listed compounds

Solved cases below.
>>> observed_result("COc1ccc(NC(=O)O[C@H]2CC[C@@]3(C)C(CC[C@]4(C)[C@@H]3C(=O)C=C3[C@@H]5C[C@@](C)(C(=O)O)CC[C@]5(C)CC[C@]34C)C2(C)C)cc1 (stereo partly shown)")
"264 to 264.8 °C"
>>> observed_result("COc1cccc(NC(=O)O[C@H]2CC[C@@]3(C)C(CC[C@]4(C)[C@@H]3C(=O)C=C3[C@@H]5C[C@@](C)(C(=O)N6CCOCC6)CC[C@]5(C)CC[C@]34C)C2(C)C)c1 (stereo partly shown)")
"305 to 306.8 °C"
>>> observed_result("CC1(C)C2CC[C@]3(C)[C@H](C(=O)C=C4[C@@H]5C[C@@](C)(C(=O)O)CC[C@]5(C)CC[C@]43C)[C@@]2(C)CC[C@@H]1OC(=O)CN1CCC(C(N)=O)CC1 (stereo partly shown)")
"283.5 to 285 °C"
>>> observed_result("CC1(C)C2CC[C@]3(C)[C@H](C(=O)C=C4[C@@H]5C[C@@](C)(C(=O)N6CCOCC6)CC[C@]5(C)CC[C@]43C)[C@@]2(C)CC[C@@H]1OC(=O)Nc1cc(Cl)cc(Cl)c1 (stereo partly shown)")
"278.2 to 280.3 °C"
>>> observed_result("CC1(C)C2CC[C@]3(C)[C@H](C(=O)C=C4[C@@H]5C[C@@](C)(C(=O)O)CC[C@]5(C)CC[C@]43C)[C@@]2(C)CC[C@@H]1OC(=O)Nc1ccc(Cl)cc1 (stereo partly shown)")
"235.1 to 236.7 °C"

### Prompt State, in one line, measured melting point of COc1ccc(NC(=O)O[C@H]2CC[C@@]3(C)C(CC[C@]4(C)[C@@H]3C(=O)C=C3[C@@H]5C[C@@](C)(C(=O)N6CCOCC6)CC[C@]5(C)CC[C@]34C)C2(C)C)cc1 (stereo partly shown)
### Response 305 to 306.7 °C

### Prompt Specify melting point for CC1(C)C2CC[C@]3(C)[C@H](C(=O)C=C4[C@@H]5C[C@@](C)(C(=O)O)CC[C@]5(C)CC[C@]43C)[C@@]2(C)CC[C@@H]1OC(=O)Nc1ccc(Br)cc1 (stereo partly shown) and stop.
### Response 263 to 265 °C

* * *

Measurement Kind: melting point

Observe how each entry below is paired with its result.
>>> observed_result("CC1(C(=O)N2CCOCC2)CCC2(C)CCC3(C)C(=CC(=O)C4C5(C)CCC(OC(=O)Nc6ccc(OC(F)(F)F)cc6)C(C)(C)C5CCC43C)C2C1 (centres unmarked)")
"308 to 310.1 °C"
>>> observed_result("CC1(C)C2CC[C@]3(C)[C@H](C(=O)C=C4[C@@H]5C[C@@](C)(C(=O)N6CCOCC6)CC[C@]5(C)CC[C@]43C)[C@@]2(C)CC[C@@H]1OC(=O)Nc1ccc(C(F)(F)F)cc1 (some centres unmarked)")
"296.4 to 298 °C"

### Prompt Check the records and state melting point for Cc1cc(C)cc(NC(=O)O[C@H]2CC[C@@]3(C)C(CC[C@]4(C)[C@@H]3C(=O)C=C3[C@@H]5C[C@@](C)(C(=O)O)CC[C@]5(C)CC[C@]34C)C2(C)C)c1 (some centres unmarked)
### Response 279.8 to 280.6 °C

### Prompt Indicate its recorded melting point; the compound in question is COc1cccc(NC(=O)O[C@H]2CC[C@@]3(C)C(CC[C@]4(C)[C@@H]3C(=O)C=C3[C@@H]5C[C@@](C)(C(=O)O)CC[C@]5(C)CC[C@]34C)C2(C)C)c1 (some centres unmarked)
### Response 259.5 to 261.1 °C

### Prompt Give melting point for Cc1ccc(NC(=O)O[C@H]2CC[C@@]3(C)C(CC[C@]4(C)[C@@H]3C(=O)C=C3[C@@H]5C[C@@](C)(C(=O)N6CCOCC6)CC[C@]5(C)CC[C@]34C)C2(C)C)cc1Cl (some centres unmarked)
### Response 293.7 to 295.6 °C

* * *

- Assay Target: ALK (Homo sapiens, UniProt Q9UM73)
- Sequence (Q9UM73 19-1620): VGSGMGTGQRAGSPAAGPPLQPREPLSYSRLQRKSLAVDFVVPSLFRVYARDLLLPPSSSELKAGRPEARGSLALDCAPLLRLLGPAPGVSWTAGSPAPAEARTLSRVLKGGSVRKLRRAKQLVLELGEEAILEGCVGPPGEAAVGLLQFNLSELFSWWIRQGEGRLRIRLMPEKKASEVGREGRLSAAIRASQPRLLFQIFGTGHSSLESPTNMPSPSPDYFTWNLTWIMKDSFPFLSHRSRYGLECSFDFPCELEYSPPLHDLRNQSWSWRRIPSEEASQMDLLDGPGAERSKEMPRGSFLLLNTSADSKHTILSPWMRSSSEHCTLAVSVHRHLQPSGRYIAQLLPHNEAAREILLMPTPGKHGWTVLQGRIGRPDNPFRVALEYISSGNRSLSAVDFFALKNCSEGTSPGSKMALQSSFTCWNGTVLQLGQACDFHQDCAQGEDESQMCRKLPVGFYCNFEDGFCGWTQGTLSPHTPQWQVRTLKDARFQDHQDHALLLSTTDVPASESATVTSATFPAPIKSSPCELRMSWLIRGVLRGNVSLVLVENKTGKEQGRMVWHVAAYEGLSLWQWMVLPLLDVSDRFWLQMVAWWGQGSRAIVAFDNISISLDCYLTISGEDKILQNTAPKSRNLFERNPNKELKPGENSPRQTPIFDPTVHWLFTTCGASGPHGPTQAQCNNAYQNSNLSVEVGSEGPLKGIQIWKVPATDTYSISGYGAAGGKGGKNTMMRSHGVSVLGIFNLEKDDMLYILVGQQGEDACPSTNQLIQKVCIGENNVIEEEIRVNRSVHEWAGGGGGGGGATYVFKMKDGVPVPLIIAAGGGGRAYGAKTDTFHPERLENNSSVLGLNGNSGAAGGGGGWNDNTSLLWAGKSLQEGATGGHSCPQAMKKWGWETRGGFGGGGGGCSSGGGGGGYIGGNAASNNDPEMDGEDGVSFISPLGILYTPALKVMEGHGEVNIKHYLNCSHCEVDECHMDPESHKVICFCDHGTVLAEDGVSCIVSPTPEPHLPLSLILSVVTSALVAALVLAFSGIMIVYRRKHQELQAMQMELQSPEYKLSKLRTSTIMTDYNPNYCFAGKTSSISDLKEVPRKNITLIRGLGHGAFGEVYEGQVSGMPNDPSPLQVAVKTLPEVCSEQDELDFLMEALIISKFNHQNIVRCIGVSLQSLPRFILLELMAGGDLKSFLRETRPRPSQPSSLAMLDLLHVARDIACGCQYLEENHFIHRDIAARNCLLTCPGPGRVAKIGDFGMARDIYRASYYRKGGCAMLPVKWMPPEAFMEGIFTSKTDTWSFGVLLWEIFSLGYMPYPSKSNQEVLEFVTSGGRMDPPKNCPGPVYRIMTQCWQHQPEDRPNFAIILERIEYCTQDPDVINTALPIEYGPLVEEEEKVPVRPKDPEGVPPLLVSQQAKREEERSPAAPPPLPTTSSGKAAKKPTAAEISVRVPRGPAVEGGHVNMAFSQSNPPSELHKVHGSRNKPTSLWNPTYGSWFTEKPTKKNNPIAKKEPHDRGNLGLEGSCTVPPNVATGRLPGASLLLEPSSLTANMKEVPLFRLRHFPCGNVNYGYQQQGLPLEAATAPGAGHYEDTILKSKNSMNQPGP
pIC50: −log10 of the molar value.
Measurement Kind: pIC50

P: CC1(C)C2CC[C@]3(C)[C@H](C(=O)C=C4[C@@H]5C[C@@](C)(C(=O)O)CC[C@]5(C)CC[C@]43C)[C@@]2(C)CC[C@@H]1OC(=O)Nc1cccc(C(F)(F)F)c1 (some centres unmarked) [3j]
Q: CC1(C)C2CC[C@]3(C)[C@H](C(=O)C=C4[C@@H]5C[C@@](C)(C(=O)O)CC[C@]5(C)CC[C@]43C)[C@@]2(C)CC[C@@H]1OC(=O)Nc1cc(C(F)(F)F)cc(C(F)(F)F)c1 (some centres unmarked) [3k]
### Prompt // pick min by pIC50: P , Q Identify your selection by its label.
### Response Q

* * *

- Tested on: MCF-7
- Test Description: MTT antiproliferative assay, MCF-7 cells
- Format: cell-based
- Experimental Parameters: Homo sapiens, MCF7; MCF-7, MTT
Measurement Kind: IC50 (µg/mL)

Known IC50 results, listed for orientation:
>>> observed_result("CC1(C)C2CC[C@]3(C)[C@H](C(=O)C=C4[C@@H]5C[C@@](C)(C(=O)O)CC[C@]5(C)CC[C@]43C)[C@@]2(C)CC[C@@H]1OC(=O)Nc1ccc(OC(F)(F)F)cc1 (stereo partly shown)")
9.3
>>> observed_result("CC1(C)C2CC[C@]3(C)[C@H](C(=O)C=C4[C@@H]5C[C@@](C)(C(=O)O)CC[C@]5(C)CC[C@]43C)[C@@]2(C)CC[C@@H]1OC(=O)Nc1cc(C(F)(F)F)cc(C(F)(F)F)c1 (stereo partly shown)")
7
>>> observed_result("CC1(C)C2CC[C@]3(C)[C@H](C(=O)C=C4[C@@H]5C[C@@](C)(C(=O)O)CC[C@]5(C)CC[C@]43C)[C@@]2(C)CC[C@@H]1OC(=O)Nc1cccc(C(F)(F)F)c1 (stereo partly shown)")
5.26
>>> observed_result("CC1(C)C2CC[C@]3(C)[C@H](C(=O)C=C4[C@@H]5C[C@@](C)(C(=O)O)CC[C@]5(C)CC[C@]43C)[C@@]2(C)CC[C@@H]1OC(=O)Nc1ccc(Cl)c(Cl)c1 (stereo partly shown)")
9.31

I: CC1(C)C2CC[C@]3(C)[C@H](C(=O)C=C4[C@@H]5C[C@@](C)(C(=O)O)CC[C@]5(C)CC[C@]43C)[C@@]2(C)CC[C@@H]1OC(=O)Nc1ccc(Cl)c(C(F)(F)F)c1 (stereo partly shown)
II: CC1(C)C2CC[C@]3(C)[C@H](C(=O)C=C4[C@@H]5C[C@@](C)(C(=O)O)CC[C@]5(C)CC[C@]43C)[C@@]2(C)CC[C@@H]1OC(=O)Nc1cc(Cl)cc(Cl)c1 (stereo partly shown)
III: C[C@@H](Oc1cc(-c2cnn(C3CCNCC3)c2)cnc1N)c1c(Cl)ccc(F)c1Cl [Crizotinib, reference compound]
### Prompt Output the entries ranked by IC50 from maximum down to minimum. Please respond with the labels ordered as the question requires.
### Response I, II, III

* * *

- Tested on: HT29
- Test Description: MTT antiproliferative assay, HT29 cells
- Format: cell-based
- Experimental Parameters: Homo sapiens, HT-29; HT29, 2 μg/mL, 48 h, MTT; read-out: Antiproliferative activity (growth inhibition, %)
Measurement Kind: inhibition at 2 µg/mL (%)
# output: bare number, implied unit %

>>> observed_result("Cc1cc(C)cc(NC(=O)O[C@H]2CC[C@@]3(C)C(CC[C@]4(C)[C@@H]3C(=O)C=C3[C@@H]5C[C@@](C)(C(=O)O)CC[C@]5(C)CC[C@]34C)C2(C)C)c1 (stereo partly drawn)")
55.8

### Prompt Please look at this compound and report its inhibition at 2 µg/mL: CC1(C(=O)N2CCOCC2)CCC2(C)CCC3(C)C(=CC(=O)C4C5(C)CCC(OC(=O)Nc6ccc(F)cc6)C(C)(C)C5CCC43C)C2C1 (stereo not drawn)
### Response 14.8

* * *

- Test system: HT29
- Test Description: MTT antiproliferative assay, HT29 cells
- Type: cell-based
- Experimental Parameters: Homo sapiens, HT-29; HT29, 2 μg/mL, 48 h, MTT; read-out: Antiproliferative activity (growth inhibition, %)
Readings of inhibition at 2 µg/mL for the listed compounds
Report the value in % with no unit label.

In the examples that follow, each entry is paired with its recorded inhibition at 2 µg/mL.
>>> observed_result("CC1(C)C2CC[C@]3(C)[C@H](C(=O)C=C4[C@@H]5C[C@@](C)(C(=O)O)CC[C@]5(C)CC[C@]43C)[C@@]2(C)CC[C@@H]1OC(=O)Nc1ccc(OC(F)(F)F)cc1 (some centres unmarked) [3n]")
19
>>> observed_result("COc1cccc(NC(=O)O[C@H]2CC[C@@]3(C)C(CC[C@]4(C)[C@@H]3C(=O)C=C3[C@@H]5C[C@@](C)(C(=O)N6CCOCC6)CC[C@]5(C)CC[C@]34C)C2(C)C)c1 (some centres unmarked) [4l]")
13.6
>>> observed_result("CC1(C(=O)O)CCC2(C)CCC3(C)C(=CC(=O)C4C5(C)CCC(OC(=O)Cc6ccc(Cl)cc6)C(C)(C)C5CCC43C)C2C1 (centres unmarked) [7a]")
33.3
>>> observed_result("CC1(C)[C@@H](O)CC[C@]2(C)[C@H]3C(=O)C=C4[C@@H]5C[C@@](C)(C(=O)O)CC[C@]5(C)CC[C@@]4(C)[C@]3(C)CC[C@@H]12 [18β-GA, 18β-glycyrrhetinic acid]")
0
>>> observed_result("Cc1ccc(NC(=O)O[C@H]2CC[C@@]3(C)C(CC[C@]4(C)[C@@H]3C(=O)C=C3[C@@H]5C[C@@](C)(C(=O)N6CCOCC6)CC[C@]5(C)CC[C@]34C)C2(C)C)cc1Cl (some centres unmarked) [4f]")
7.1
>>> observed_result("CC1(C)C2CC[C@]3(C)[C@H](C(=O)C=C4[C@@H]5C[C@@](C)(C(=O)O)CC[C@]5(C)CC[C@]43C)[C@@]2(C)CC[C@@H]1OC(=O)Nc1cccc(Cl)c1 (some centres unmarked) [3e]")
18.8
>>> observed_result("CC1(C)C2CC[C@]3(C)[C@H](C(=O)C=C4[C@@H]5C[C@@](C)(C(=O)O)CC[C@]5(C)CC[C@]43C)[C@@]2(C)CC[C@@H]1OC(=O)Cc1ccc(F)cc1 (some centres unmarked) [7b]")
44.1
>>> observed_result("CC1(C)C2CC[C@]3(C)[C@H](C(=O)C=C4[C@@H]5C[C@@](C)(C(=O)O)CC[C@]5(C)CC[C@]43C)[C@@]2(C)CC[C@@H]1OC(=O)CN1CCOCC1 (some centres unmarked) [6a]")
0
>>> observed_result("CC1(C(=O)N2CCOCC2)CCC2(C)CCC3(C)C(=CC(=O)C4C5(C)CCC(OC(=O)Nc6cccc(C(F)(F)F)c6)C(C)(C)C5CCC43C)C2C1 (centres unmarked) [4j]")
20.3
>>> observed_result("CC1(C)C2CC[C@]3(C)[C@H](C(=O)C=C4[C@@H]5C[C@@](C)(C(=O)O)CC[C@]5(C)CC[C@]43C)[C@@]2(C)CC[C@@H]1OC(=O)Nc1cc(Cl)cc(Cl)c1 (some centres unmarked) [3c]")
8.39

### Prompt Provide measured inhibition at 2 µg/mL on HT29 for CC1(C)C2CC[C@]3(C)[C@H](C(=O)C=C4[C@@H]5C[C@@](C)(C(=O)N6CCOCC6)CC[C@]5(C)CC[C@]43C)[C@@]2(C)CC[C@@H]1OC(=O)Nc1cc(Cl)cc(Cl)c1 (some centres unmarked) [4c] please.
### Response 7.41
